- study-target: Der p 1 (Dermatophagoides pteronyssinus (European house dust mite))
- assay-details: Der p 1 enzyme activity assay (FRET fluorogenic substrate)
- Assay type: biochemical
- assay-setup: Der p 1 IC50
- Experimental: The fluorogenic substrate used for measuring Der p 1 proteolytic activity was 2-aminobenzoylvalylalanylnorleucylseryl-(3-nitro)tyrosinyl aspartamide. […] Inhibitory activity was analysed from progress curves of reactions in the presence of a range of inhibitor concentrations. […] Then, IC50 was determined by fitting the data of fractional activity and inhibitor concentration to a 4-parameter logistic curve, using Equation 2: V=Vmin+[Vmax−Vmin]/[1+(X/IC50)Hillslope] […]
observed-property: IC50

IC50 recorded for this molecule, CC(C)[C@@H](NC(=O)[C@H](C)NC(=O)[C@@H](NC(=O)c1ccncc1)C(C)(C)C)C(=O)C(=O)NC1CCCCC1 , is < 200 nM

IC50 recorded for this molecule, CC(C)[C@H](NC(=O)[C@H](C)NC(=O)[C@H](Cc1ccccc1)NC(=O)c1ccccc1)C(=O)C(=O)NCC(=O)N1CCOCC1 , is < 20 nM

IC50 recorded for this molecule, CC(C)[C@@H](NC(=O)[C@H](C)NC(=O)[C@@H](NC(=O)c1ccccc1)C(C)(C)C)C(=O)C(=O)NC1CCCCC1 , is < 200 nM

---

- study-target: Der p 1 (Dermatophagoides pteronyssinus (European house dust mite), UniProt P08176)
- Sequence (P08176 99-320): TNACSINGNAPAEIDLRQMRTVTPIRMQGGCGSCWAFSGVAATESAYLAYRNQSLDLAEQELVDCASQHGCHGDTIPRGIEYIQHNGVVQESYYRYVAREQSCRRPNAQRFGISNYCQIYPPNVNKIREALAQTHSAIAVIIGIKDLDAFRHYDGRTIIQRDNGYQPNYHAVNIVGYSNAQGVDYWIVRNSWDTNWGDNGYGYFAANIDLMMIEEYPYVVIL
- assay-details: Der p 1 enzyme activity assay (FRET fluorogenic substrate)
- Assay type: biochemical
- assay-setup: threshold stated in text; read-out: Der p 1 IC50
pIC50: −log10 of the molar value.
Catalogue of pIC50 values

                            chemical_smiles  observed_property  measured_result
0  CC(C)[C@H](NC(=O)[C@H](C)NC(=O)[C@@H](NC(=O)c1cccc(N2CCN(C)CC2)c1)C(C)(C)C)C(=O)C(=O)NCc1ccccc1              pIC50           > 6.70
1  CC(C)[C@H](NC(=O)[C@H](C)NC(=O)[C@@H](Cc1ccc(F)cc1)NC(=O)c1ccccc1)C(=O)C(=O)NCc1ccccc1              pIC50           > 6.70
2  CC(C)[C@H](NC(=O)[C@H](C)NC(=O)[C@H](Cc1cccc2ccccc12)NC(=O)c1ccccc1)C(=O)C(=O)NCC(=O)N1CCN(C)CC1              pIC50           > 7.70
3  CC(C)[C@H](NC(=O)[C@H](C)NC(=O)[C@@H](NC(=O)c1ccccc1)C(C)(C)C)C(=O)C(=O)NC1CC1              pIC50           > 7.70
4  CC(C)[C@H](NC(=O)[C@H](C)NC(=O)[C@@H](NC(=O)c1ccccc1)C(C)(C)C)C(=O)C(=O)NCc1cccc(N2CCN(C)CC2)c1              pIC50           > 6.70

Please look at the following molecule next.
pIC50 recorded for this molecule, CC(C)[C@H](NC(=O)[C@H](C)NC(=O)[C@@H](NC(=O)c1ccccc1)C(C)(C)C)C(=O)C(=O)NCc1cccc(Cl)c1 , is > 6.70

---

- study-target: Der p 1 (Dermatophagoides pteronyssinus (European house dust mite))
- assay-details: Der p 1 enzyme activity assay (FRET fluorogenic substrate)
- Format: biochemical
- assay-setup: Der p 1 IC50
pIC50: −log10 of the molar value.
observed-property: pIC50

Worked examples, 2 molecules total:
                            chemical_smiles  measured_result
0  CC(C)[C@H](NC(=O)[C@H](C)NC(=O)[C@@H](NC(=O)c1ccccc1)C12CC3CC(CC(C3)C1)C2)C(=O)C(=O)NCC(=O)N1CCN(C)CC1           > 7.70
1  CC(C)[C@H](NC(=O)[C@H](C)NC(=O)[C@@H](NC(=O)c1ccccc1)C(C)(C)C)C(=O)C(=O)NCC(=O)N1CCc2ccccc2C1           > 7.70

pIC50 recorded for this molecule, CC(C)[C@H](NC(=O)[C@H](C)NC(=O)[C@H](Cc1ccccc1)NC(=O)c1ccccc1)C(=O)C(=O)NCC(=O)N1CCN(C)CC1 , is > 7.70

pIC50 recorded for this molecule, CC(C)[C@H](NC(=O)[C@H](C)NC(=O)[C@H](Cc1ccccc1)NC(=O)c1ccccc1)C(=O)C(=O)NCC(=O)N1CCN(C(C)C)CC1 , is > 7.70

pIC50 recorded for this molecule, CC(C)[C@H](NC(=O)[C@H](C)NC(=O)[C@@H](NC(=O)c1ccncc1)C(C)(C)C)C(=O)C(=O)NC1CCCCC1 , is > 7.70

pIC50 recorded for this molecule, CC(C)[C@H](NC(=O)[C@H](C)NC(=O)[C@@H](NC(=O)c1ccccc1)C(C)(C)C)C(=O)C(=O)N[C@@H]1CN2CCC1CC2 , is > 6.70

---

- study-target: Der p 1 (Dermatophagoides pteronyssinus (European house dust mite), UniProt P08176)
- assay-details: Der p 1 enzyme activity assay (FRET fluorogenic substrate)
- Type: biochemical
- assay-setup: Table 1; read-out: Der p 1 IC50
observed-property: pIC50
The scale used: pIC50 is minus the common logarithm of the concentration in molar units.

>>> print(df.to_string())
                            chemical_smiles                              study_target  observed_property  measured_result
0  CC(C)[C@H](NC(=O)[C@H](C)NC(=O)[C@@H](NC(=O)c1ccccc1)C(C)(C)C)C(=O)C(=O)NC1CCCCC1  Der p 1 (Dermatophagoides pteronyssinus (European house dust mite), UniProt P08176)              pIC50             7.85
1  CCCC[C@H](NC(=O)[C@H](C)NC(=O)[C@@H](NC(=O)c1ccncc1)C(C)(C)C)C(=O)C(=O)NC1CCCCC1  Der p 1 (Dermatophagoides pteronyssinus (European house dust mite), UniProt P08176)              pIC50             8.20
2  CCCC[C@H](NC(=O)[C@H](C)NC(=O)[C@@H](NC(=O)c1ccccc1)C(C)(C)C)C(=O)C(=O)NC1CCCCC1  Der p 1 (Dermatophagoides pteronyssinus (European house dust mite), UniProt P08176)              pIC50             8.11

pIC50 recorded for this molecule, CC(C)[C@H](NC(=O)[C@H](C)NC(=O)[C@@H](NC(=O)c1ccncc1)C(C)(C)C)C(=O)C(=O)NC1CCCCC1 , is 7.88

---

- study-target: Der p 1 (Dermatophagoides pteronyssinus (European house dust mite))
- assay-details: Der p 1 enzyme activity assay (FRET fluorogenic substrate)
- Format: biochemical
- assay-setup: threshold stated in text; read-out: Der p 1 IC50
Catalogue of IC50 values

>>> df
                                   molecule  measured_result
0  C[C@H](NC(=O)[C@H](Cc1ccccc1)NC(=O)c1ccccc1)C(=O)NCC(=O)C(=O)N1CCC(N(C)C)CC1        < 2000 nM
1  CC(C)[C@H](NC(=O)[C@H](C)NC(=O)[C@@H](NC(=O)c1cncc2ccccc12)C(C)(C)C)C(=O)C(=O)NC1CCCCC1          < 20 nM
2  CC(=O)Nc1ccc(C(=O)N[C@@H](Cc2ccccc2)C(=O)N[C@@H](C)C(=O)N[C@H](C(=O)C(=O)NCc2ccccc2)C(C)C)cn1         < 200 nM
3  CC(C)C(NC(=O)[C@H](C)NC(=O)[C@H](Cc1ccccc1)NC(=O)c1ccccc1)C(=O)C(=O)NCCN1CCCC1 (stereo partly shown)        < 2000 nM
4  CC(C)[C@H](NC(=O)[C@H](C)NC(=O)[C@@H](NC(=O)c1ccccc1)C(C)(C)C)C(=O)C(=O)NCc1ccc(CN(C)C)cc1          < 20 nM
5  CC(C)[C@H](NC(=O)[C@H](C)NC(=O)[C@@H](NC(=O)c1ccccc1S(C)(=O)=O)C(C)(C)C)C(=O)C(=O)NCc1ccccc1          < 20 nM
6  CC(C)[C@H](NC(=O)[C@H](C)NC(=O)[C@@H](NC(=O)c1ccccc1)C(C)(C)c1ccccc1)C(=O)C(=O)NC1CC1         < 200 nM
7  CC(C)[C@H](NC(=O)[C@H](C)NC(=O)[C@@H](NC(=O)c1ccccc1)C12C[C@H]3C[C@@H](C1)C[C@@H](C2)C3)C(=O)C(=O)NCc1ccccc1          < 20 nM
8  CC(C)[C@H](NC(=O)[C@H](C)NC(=O)[C@@H](NC(=O)c1ccccc1)C(C)(C)C)C(=O)C(=O)NCc1ccc(C#N)cc1          < 20 nM
9  CC(C)[C@H](NC(=O)[C@H](C)NC(=O)[C@@H](NC(=O)c1ccccc1)C(C)(C)C)C(=O)C(=O)N[C@H](C(=O)N1CCN(C)CC1)C(C)C         < 200 nM

IC50 recorded for this molecule, CC(C)[C@H](NC(=O)[C@H](C)NC(=O)C1CCCN1C(=O)c1ccccc1)C(=O)C(=O)NC1CCCCC1 (stereo partly shown) , is < 200 nM

IC50 recorded for this molecule, CC(C)[C@H](NC(=O)[C@H](C)NC(=O)[C@@H](NC(=O)c1cccc2ncccc12)C(C)(C)C)C(=O)C(=O)NCc1ccccc1 , is < 20 nM

IC50 recorded for this molecule, CC(C)[C@H](NC(=O)[C@H](C)NC(=O)C1Cc2ccccc2N1C(=O)c1ccccc1)C(=O)C(=O)NCc1ccccc1 (stereo partly shown) , is < 200 nM

IC50 recorded for this molecule, CC(C)[C@H](NC(=O)[C@H](C)NC(=O)[C@@H](NC(=O)c1ccccc1)C(C)(C)C)C(=O)C(N)=O , is < 20 nM

IC50 recorded for this molecule, CC(C)[C@H](NC(=O)[C@H](C)NC(=O)[C@@H](NC(=O)c1ccccc1)C(C)(C)C)C(=O)C(=O)NC1CCC1 , is < 200 nM

IC50 recorded for this molecule, CCCCC(NC(=O)[C@H](C)NC(=O)[C@H](Cc1ccccc1)NC(=O)c1ccccc1)C(=O)C(=O)NCc1ccncc1 (stereo partly shown) , is < 2000 nM

IC50 recorded for this molecule, CNS(=O)(=O)c1ccc(CNC(=O)C(=O)[C@@H](NC(=O)[C@H](C)NC(=O)[C@@H](NC(=O)c2ccccc2)C(C)(C)C)C(C)C)cc1 , is < 20 nM
